- TARGET OF ASSAY: T1, human vitronectin (human, UniProt P04004 20-478)
- T1 construct: Coated on ELISA plates at 100 nM; also called Vn
- T1 sequence (P04004 20-478 limits assumed): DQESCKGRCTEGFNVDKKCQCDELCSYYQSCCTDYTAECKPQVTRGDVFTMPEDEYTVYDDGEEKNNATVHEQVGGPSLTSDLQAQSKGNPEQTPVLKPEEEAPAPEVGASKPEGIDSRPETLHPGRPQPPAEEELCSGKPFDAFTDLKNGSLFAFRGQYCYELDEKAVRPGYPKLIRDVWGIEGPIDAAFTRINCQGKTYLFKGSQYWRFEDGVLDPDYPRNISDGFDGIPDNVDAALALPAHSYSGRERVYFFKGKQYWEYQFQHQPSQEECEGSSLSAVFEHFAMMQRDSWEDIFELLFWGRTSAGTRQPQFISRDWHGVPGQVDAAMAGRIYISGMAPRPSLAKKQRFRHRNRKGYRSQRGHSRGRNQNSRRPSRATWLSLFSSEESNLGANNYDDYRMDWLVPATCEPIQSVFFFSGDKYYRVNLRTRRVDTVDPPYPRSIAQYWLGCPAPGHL
- PROTOCOL DESCRIPTION: ELISA; ECM protein coated at 100 nM, soluble protein 0-100 nM, one-site fit
- Method: ELISA plates (Medium binding, Greiner bio-one) were coated with 100 nM of ECM proteins in 50 μl of PBS for 1 h at 37° C.; human plasma fibronectin (Sigma), human vitronectin (Peprotech), human tenascin C (R&D Systems), human fibrinogen (Enzyme Research Laboratories). […] Then, wells were washed 3 times with PBS-T and bound PDGF-BB and IL-1Ra variants were detected using biotinylated antibodies in PBS-T containing 0.1% BSA. […]
TEST READOUT: Kd (nM)
# output: bare number, implied unit nM

Query PDGF-BB/PIGF123-141 (other, not shown: 6x histidine tag at the N-terminus) SLGSLAAAEPAVIAECKTRTEVFQISRNLIDRTNANFLVWPPCVEVQRCSGCCNNRNVQCRASQVQMRPVQVRKIEIVRKKPIFKKATVTLEDHLACKCETIVTPRPVTRRRPKGRGKRRREKQRPTD yields Kd of 1.4
